# Tested on: CAL-51
# experiment summary: normalised viability (% of control), CellTiter-Blue; higher = more viable cells (about 100 = DMSO control)
# cond: 10 nM; incubation time: 72 h
observed property: normalised viability (%)
Express it in %; write the number only.

Example entries begin here.
INSERT INTO results (compound, reported_measurement) VALUES
  ('CC(C)C(=O)Nc1ccc([N+](=O)[O-])c(C(F)(F)F)c1 [Flutamide]', 112),
  ('C[C@@H]1C[C@H]2[C@@H]3CCC4=CC(=O)C=C[C@]4(C)[C@@]3(F)[C@@H](O)C[C@]2(C)[C@@]1(O)C(=O)CO', 94.9),
  ('NC(=O)c1cccc2cn(-c3ccc([C@@H]4CCCNC4)cc3)nc12', 110),
  ('CCN(CC)CCOc1ccc(C(=C(Cl)c2ccccc2)c2ccccc2)cc1', 97.5);

Find the measured normalised viability: item C[C@@H](C(=O)O)c1ccc(-c2ccccc2)c(F)c1 , target or system CAL-51.
118

---

Listed here: items and their measured normalised response.
# Test system: HCC1143
# experiment summary: normalised response (% of control), CellTox Green; higher = less cell death (100 = DMSO, 0 = benzethonium chloride kill control)
# cond: incubation time: 72 h
Express it in %; write the number only.

Example entries begin here.
INSERT INTO results (molecule, reported_measurement) VALUES
  ('CC/C(=C(\c1ccccc1)c1ccc(OCCN(C)C)cc1)c1ccccc1 [Tamoxifen] (10000 nM)', 108),
  ('C[C@@H]1C[C@H]2[C@@H]3CCC4=CC(=O)C=C[C@]4(C)[C@@]3(F)[C@@H](O)C[C@]2(C)[C@@]1(O)C(=O)CO [Dexamethasone] (100 nM)', 101),
  ('CCc1c(C(=O)C(N)=O)c2c(OCC(=O)O)cccc2n1Cc1ccccc1 [Varespladib] (100 nM)', 92.1),
  ('CC(C)NC[C@@H](C(=O)N1CCN(c2ncnc3c2[C@H](C)C[C@H]3O)CC1)c1ccc(Cl)cc1 [GDC-0068] (10000 nM)', 110),
  ('O=C(O)CC[C@H]1CC[C@@](c2cc(F)ccc2F)(S(=O)(=O)c2ccc(Cl)cc2)CC1 [MK-0752] (100 nM)', 105),
  ('CO[C@H]1C[C@@H]2CC[C@@H](C)[C@@](O)(O2)C(=O)C(=O)N2CCCC[C@H]2C(=O)O[C@H]([C@H](C)C[C@@H]2CC[C@@H](O)[C@H](OC)C2)CC(=O)[C@H](C)/C=C(\C)[C@@H](O)[C@@H](OC)C(=O)[C@H](C)C[C@H](C)/C=C/C=C/C=C/1C [Sirolimus] (1 nM)', 78.7);

Which normalised response reading was recorded for the molecule Nc1nc(Cl)nc2c1ncn2[C@@H]1O[C@H](CO)[C@@H](O)[C@@H]1F [Clofarabine] (10000 nM) ?
106

Which normalised response reading was recorded for the molecule COc1cc(Nc2ncc(F)c(Nc3ccc4c(n3)N(COP(=O)(O)O)C(=O)C(C)(C)O4)n2)cc(OC)c1OC [Fostamatinib] (2500 nM) ?
100

Which normalised response reading was recorded for the molecule CO[C@H]1C[C@@H]2CC[C@@H](C)[C@@](O)(O2)C(=O)C(=O)N2CCCC[C@H]2C(=O)O[C@H]([C@H](C)C[C@@H]2CC[C@@H](O)[C@H](OC)C2)CC(=O)[C@H](C)/C=C(\C)[C@@H](O)[C@@H](OC)C(=O)[C@H](C)C[C@H](C)/C=C/C=C/C=C/1C [Sirolimus] (100 nM) ?
101

Which normalised response reading was recorded for the molecule NC(=O)c1cccc2cn(-c3ccc([C@@H]4CCCNC4)cc3)nc12 [MK-4827] (10000 nM) ?
127

Which normalised response reading was recorded for the molecule CO[C@H]1C[C@@H]2CC[C@@H](C)[C@@](O)(O2)C(=O)C(=O)N2CCCC[C@H]2C(=O)O[C@H]([C@H](C)C[C@@H]2CC[C@@H](O)[C@H](OC)C2)CC(=O)[C@H](C)/C=C(\C)[C@@H](O)[C@@H](OC)C(=O)[C@H](C)C[C@H](C)/C=C/C=C/C=C/1C [Sirolimus] (10 nM) ?
115

---

Listed here: items and their measured normalised response.
# Tested on: HCC1599
# experiment summary: normalised response (% of control), CellTiter-Glo; higher = more viable cells (100 = DMSO, 0 = benzethonium chloride kill control)
# cond: incubation time: 72 h
Quick note: unit goes after the number.

Which normalised response reading was recorded for the molecule Cc1c(C(=O)Nc2ccc(N3C[C@@H](C)O[C@@H](C)C3)nc2)cccc1-c1ccc(OC(F)(F)F)cc1 [Erismodegib] (10000 nM) ?
91.1%

Which normalised response reading was recorded for the molecule COc1cc(Nc2ncc(F)c(Nc3ccc4c(n3)N(COP(=O)(O)O)C(=O)C(C)(C)O4)n2)cc(OC)c1OC [Fostamatinib] (2500 nM) ?
66.8%

Which normalised response reading was recorded for the molecule NC1(c2ccc(-c3nc4ccn5c(=O)[nH]nc5c4cc3-c3ccccc3)cc2)CCC1 [MK-2206] (1000 nM) ?
72.6%

Which normalised response reading was recorded for the molecule O=NN(CCCl)C(=O)NC1CCCCC1 [Lomustine] (10000 nM) ?
104%

---

Listed here: items and their measured normalised viability.
# Tested on: HCC1143
# experiment summary: normalised viability (% of control), CellTiter-Blue; higher = more viable cells (about 100 = DMSO control)
# cond: 10 nM; incubation time: 72 h
Express it in %; write the number only.

Example entries begin here.
INSERT INTO results (compound_string, unit_string, reported_measurement) VALUES
  ('O=C(O)CC[C@H]1CC[C@@](c2cc(F)ccc2F)(S(=O)(=O)c2ccc(Cl)cc2)CC1', '%', 98),
  ('COc1cc2c(Oc3ccc(NC(=O)C4(C(=O)Nc5ccc(F)cc5)CC4)cc3F)ccnc2cc1OCCCN1CCOCC1', '%', 99.9),
  ('COc1cc2c(N3CCN(C(=O)Nc4ccc(OC(C)C)cc4)CC3)ncnc2cc1OCCCN1CCCCC1', '%', 125),
  ('CC[C@@H]1C(=O)N(C)c2cnc(Nc3ccc(C(=O)N[C@H]4CC[C@H](N5CCN(CC6CC6)CC5)CC4)cc3OC)nc2N1C(C)C', '%', 77.4);

Kindly consider the entry below.
Which normalised viability reading was recorded for the compound CO[C@H]1C[C@@H]2CC[C@@H](C)[C@@](O)(O2)C(=O)C(=O)N2CCCC[C@H]2C(=O)O[C@H]([C@H](C)C[C@@H]2CC[C@@H](O)[C@H](OC)C2)CC(=O)[C@H](C)/C=C(\C)[C@@H](O)[C@@H](OC)C(=O)[C@H](C)C[C@H](C)/C=C/C=C/C=C/1C ?
67.9

---

Listed here: items and their measured normalised response.
# Tested on: CAL-85-1
# experiment summary: normalised response (% of control), CellTox Green; higher = less cell death (100 = DMSO, 0 = benzethonium chloride kill control)
# cond: incubation time: 72 h
Express it in %; write the number only.

Example entries begin here.
INSERT INTO assay_data (molecule, observed_property, reported_measurement) VALUES
  ('CC[C@H](CC#N)OC(=O)N[C@@H](C)c1cccc(NC(=O)Nc2ccc(-c3cnco3)c(OC)c2)c1 [AVN944] (1000 nM)', 'normalised response', 97),
  ('CC/C(=C(\c1ccccc1)c1ccc(OCCN(C)C)cc1)c1ccccc1 [Tamoxifen] (100 nM)', 'normalised response', 105),
  ('COc1cc2c(cc1-c1c(C)noc1C)ncc1[nH]c(=O)n([C@H](C)c3ccccn3)c12 [I-BET151] (100 nM)', 'normalised response', 107),
  ('CC(C)n1nc(-c2ccc3oc(N)nc3c2)c2c(N)ncnc21 [INK128] (10 nM)', 'normalised response', 99.9),
  ('C[C@@H]1C[C@H]2[C@@H]3CCC4=CC(=O)C=C[C@]4(C)[C@@]3(F)[C@@H](O)C[C@]2(C)[C@@]1(O)C(=O)CO [Dexamethasone] (100 nM)', 'normalised response', 107),
  ('C[C@@H](C(=O)O)c1ccc(-c2ccccc2)c(F)c1 [Tarenflurbil] (10000 nM)', 'normalised response', 110),
  ('C[C@]12C=CC(=O)C=C1CC[C@@H]1[C@@H]2C(=O)C[C@@]2(C)[C@H]1CC[C@]2(O)C(=O)CO [Prednisone] (1000 nM)', 'normalised response', 103);

Kindly consider the entry below.
Which normalised response reading was recorded for the molecule CC(C)C(=O)Nc1ccc([N+](=O)[O-])c(C(F)(F)F)c1 [Flutamide] (1000 nM) ?
101

---

# System: MFM-223
# experiment summary: normalised response (% of control), CellTiter-Glo; higher = more viable cells (100 = DMSO, 0 = benzethonium chloride kill control)
# cond: incubation time: 72 h
Listed here: items and their measured normalised response.
Express it in %; write the number only.

INSERT INTO assay_data (compound, observed_property, reported_measurement) VALUES
  ('CO[C@H](C(=O)[C@@H](O)[C@@H](C)O)[C@@H]1Cc2cc3cc(O[C@H]4C[C@@H](O[C@@H]5C[C@@H](O)[C@H](O)[C@@H](C)O5)[C@H](O)[C@@H](C)O4)c(C)c(O)c3c(O)c2C(=O)[C@H]1O[C@H]1C[C@@H](O[C@@H]2C[C@@H](O)[C@@H](O[C@@H]3C[C@](C)(O)[C@H](O)[C@@H](C)O3)[C@@H](C)O2)[C@H](O)[C@@H](C)O1 [Plicamycin] (1000 nM)', 'normalised response', 104),
  ('C[C@]12C=CC(=O)C=C1CC[C@@H]1[C@@H]2C(=O)C[C@@]2(C)[C@H]1CC[C@]2(O)C(=O)CO [Prednisone] (1000 nM)', 'normalised response', 101),
  ('CN1CCc2c(c3ccccc3n2Cc2ccc(C(=O)NO)cc2)C1 [Tubastatin A] (10 nM)', 'normalised response', 102),
  ('CC/C(=C(\c1ccccc1)c1ccc(OCCN(C)C)cc1)c1ccccc1 [Tamoxifen] (10 nM)', 'normalised response', 108),
  ('COc1cc(Nc2ncc(F)c(Nc3ccc4c(n3)N(COP(=O)(O)O)C(=O)C(C)(C)O4)n2)cc(OC)c1OC [Fostamatinib] (250 nM)', 'normalised response', 63.1);

Which normalised response reading was recorded for the compound CC/C(=C(\c1ccccc1)c1ccc(OCCN(C)C)cc1)c1ccccc1 [Tamoxifen] (1000 nM) ?
97.9

Which normalised response reading was recorded for the compound COc1cc2c(N3CCN(C(=O)Nc4ccc(OC(C)C)cc4)CC3)ncnc2cc1OCCCN1CCCCC1 [Tandutinib] (100 nM) ?
101

Which normalised response reading was recorded for the compound CCc1cnn2c(NCc3ccc[n+]([O-])c3)cc(N3CCCC[C@H]3CCO)nc12 [Dinaciclib] (0.1 nM) ?
100

Which normalised response reading was recorded for the compound CCN(CC)CCOc1ccc(C(=C(Cl)c2ccccc2)c2ccccc2)cc1 [Clomifene] (1 nM) ?
99.6

Which normalised response reading was recorded for the compound Nc1nc(Cl)nc2c1ncn2[C@@H]1O[C@H](CO)[C@@H](O)[C@@H]1F [Clofarabine] (1 nM) ?
101

Which normalised response reading was recorded for the compound CCCCCOC(=O)Nc1nc(=O)n([C@@H]2O[C@H](C)[C@@H](O)[C@H]2O)cc1F [Capecitabine] (1 nM) ?
98.2

Which normalised response reading was recorded for the compound CC[C@H](CC#N)OC(=O)N[C@@H](C)c1cccc(NC(=O)Nc2ccc(-c3cnco3)c(OC)c2)c1 [AVN944] (10 nM) ?
96.2

Which normalised response reading was recorded for the compound Cc1c(C(=O)Nc2ccc(N3C[C@@H](C)O[C@@H](C)C3)nc2)cccc1-c1ccc(OC(F)(F)F)cc1 [Erismodegib] (1 nM) ?
96.7
